PROTOCOL_DETAILS: Acute Toxicity
Design: species or system Wistar-Imamichi strain male and female rats
CONDITION_CONTEXT: rat, in vivo, po, female rat, suspension in 5% gum arabi
MEASUREMENT_LABEL: LD50 (mg/kg)
Number in mg/kg, nothing else.

**Q:** // lookup LD50 for O=C(O)c1ccccc1Nc1cc(Cl)ccc1C(=O)O
**A:** 2600

These entries and their values trace back to patent US4092426A.
